# assay summary: in vitro
# Format: cell-based
# experimental parameters: human; Caco2 cells, 24 h, CCK-8; approximate conversion of >200 μM
readout kind: CC50

Query string: Tell me the measured CC50 of C=CCn1c(/C=C/c2ccccc2)nc2ccccc21 , please.
Result string: > 52 µg/mL

* * *

# assay summary: in vitro
# Format: cell-based
# experimental parameters: human; MRC-5 cells, 24 h, CCK-8
readout kind: CC50

Query string: Look up CC50: C=CCn1c(/C=C/c2ccccc2)nc2ccccc21
Result string: > 200 µM

* * *

# assayed target: M. tuberculosis dUTPase (Mt-dUTPase) (Mycobacterium tuberculosis, UniProt P9WNS5)
# Sequence (P9WNS5 whole entry): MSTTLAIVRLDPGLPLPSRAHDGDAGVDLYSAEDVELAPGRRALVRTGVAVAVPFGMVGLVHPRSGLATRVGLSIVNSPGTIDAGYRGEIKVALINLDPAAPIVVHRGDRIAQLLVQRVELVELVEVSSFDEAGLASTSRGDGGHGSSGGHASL
readout kind: IC50 (nM)
State just the number; it will be interpreted in nM.

Query string: Recall the recorded IC50 for O=c1ccn([C@H]2C[C@H](O)[C@@H](COC(c3ccccc3)(c3ccccc3)c3ccccc3)O2)c(=O)[nH]1 with M. tuberculosis dUTPase (Mt-dUTPase) (Mycobacterium tuberculosis, UniProt P9WNS5) and state it.
Result string: 1040
